target: haematopoietic prostaglandin D synthase (H-PGDS) (Homo sapiens); construct: Full length human H-PGDS cDNA (Invitrogen Ultimate ORF IOH13026) was amplified by PCR; made in house; host or cells: E. coli BL21 (DE3*), vector pET22b+; test: H-PGDS RapidFire High Throughput Mass Spectrometry Assay; format: biochemical; details: H-PGDS RapidFire MS assay, mean pIC50; read-out: Potency Range (mean pIC50) (converted)
Sequence (O60760 whole entry): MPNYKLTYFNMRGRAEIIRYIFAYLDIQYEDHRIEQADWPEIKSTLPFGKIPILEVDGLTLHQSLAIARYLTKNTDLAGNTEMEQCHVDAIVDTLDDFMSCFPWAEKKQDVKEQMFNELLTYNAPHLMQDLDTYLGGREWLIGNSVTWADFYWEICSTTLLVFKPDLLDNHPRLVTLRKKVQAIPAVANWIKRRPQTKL
Structures can show the parent of a compound that is named as a salt.
Measured IC50, listed per entry for reference.
endpointName: IC50

{"columns": ["molecule", "endpointName", "experimentalResult"],
 "data": [
  ["CC1CN(c2cc3ncc(C(=O)N[C@@H]4C(=O)NC[C@H]4C)cc3cc2F)C1 [Example 207]", "IC50", "0.1 to 1 µM"],
  ["C[C@@H](N[C@H]1CC[C@H](NC(=O)c2cnc3cc(OC(F)F)c(F)cc3c2)CC1)C(F)F [Example 69]", "IC50", "0.01 to 0.0794 µM"],
  ["CC(C)(O)[C@H]1CC[C@H](NC(=O)c2cnc3cc(Br)ccc3c2)CC1 [Example 191]", "IC50", "0.01 to 0.0794 µM"],
  ["N#Cc1cc2cc(C(=O)N[C@H]3CCNC3=O)cnc2cc1C1CC1 [Example 25, hydrochloride]", "IC50", "0.01 to 0.0794 µM"],
  ["CC(=O)c1cc2ncc(C(=O)N[C@H]3CC[C@H](C(C)(C)O)CC3)cc2cc1Cl [Example 172]", "IC50", "< 0.01 µM"],
  ["CC1(O)CC(NC(=O)c2cnc3cc(N4CCC4)c(Cl)cc3c2)C1 (stereo not drawn) [Example 167, trifluoroacetic Acid Salt]", "IC50", "< 0.01 µM"],
  ["Cn1nnnc1N1CCC(NC(=O)c2cnc3cc(C4CC4)c(Cl)cc3c2)CC1 [Example 34]", "IC50", "< 0.01 µM"],
  ["CC1CCN1c1cc2ncc(C(=O)N[C@H]3CCNC3=O)cc2cc1Cl (stereo partly drawn) [Example 182]", "IC50", "0.01 to 0.0794 µM"],
  ["O=C(N[C@H]1C[C@H](O)C1)c1cnc2cc(OC(F)F)c(Cl)cc2c1 [Example 140]", "IC50", "0.01 to 0.0794 µM"],
  ["COC(=O)[C@H]1CC[C@H](NC(=O)c2cnc3cc(OC(F)F)c(F)cc3c2)CC1 [Example 86]", "IC50", "< 0.01 µM"],
  ["C#CCNC(=O)CO[C@H]1CC[C@H](NC(=O)c2cnc3cc(OC(F)F)c(F)cc3c2)CC1 [Example 102]", "IC50", "0.01 to 0.0794 µM"],
  ["CC(O)(CO[C@H]1CC[C@H](NC(=O)c2cnc3cc(OC(F)F)ccc3c2)CC1)C(F)(F)F (stereo partly drawn) [Example 19]", "IC50", "0.01 to 0.0794 µM"],
  ["C[C@@H](N[C@H]1C[C@H](NC(=O)c2cnc3cc(OC(F)F)c(F)cc3c2)C1)C(F)F [Example 74]", "IC50", "0.01 to 0.0794 µM"],
  ["C[C@]1(O)C[C@@H](NC(=O)c2cnc3cc(OC(F)F)c(Cl)cc3c2)C1 [Example 138]", "IC50", "0.01 to 0.0794 µM"],
  ["CC1(C)CC(NC(=O)c2cnc3cc(OC(F)F)c(Cl)cc3c2)CCO1 (stereo not drawn) [Example 150]", "IC50", "0.01 to 0.0794 µM"],
  ["Cn1nnnc1N1CCC(NC(=O)c2cnc3cc(Br)c(Cl)cc3c2)CC1 [Example 27]", "IC50", "0.01 to 0.0794 µM"],
  ["COc1cc2ncc(C(=O)NC3CCN(c4nnnn4C)CC3)cc2cc1C [Example 29]", "IC50", "0.01 to 0.0794 µM"],
  ["O=C(N[C@H]1CCN(CC2CC2)C1=O)c1cnc2cc(OC(F)F)c(Cl)cc2c1 [Example 120]", "IC50", "0.01 to 0.0794 µM"],
  ["CC(N[C@H]1CC[C@H](NC(=O)c2cnc3cc(OC(F)F)c(Cl)cc3c2)CC1)C(F)F (mixture of isomers) [Example 125]", "IC50", "< 0.01 µM"],
  ["O=C(NC1CCN(CC(F)F)CC1)c1cnc2cc(OC(F)F)c(F)cc2c1 [Example 65]", "IC50", "0.01 to 0.0794 µM"],
  ["Cc1ccc2cc(C(=O)N[C@H]3CC[C@H](C(C)(C)O)CC3)cnc2c1 [Example 186]", "IC50", "0.1 to 1 µM"],
  ["Cn1nc(C2CC2)cc1NC(=O)c1cnc2cc(OC(F)F)c(Cl)cc2c1 [Example 128]", "IC50", "0.01 to 0.0794 µM"],
  ["O=C(N[C@H]1CCNC1=O)c1cnc2cc(N3CC(F)C3)c(Cl)cc2c1 [Example 169]", "IC50", "< 0.01 µM"],
  ["CC(C)C(O)CO[C@H]1CC[C@H](NC(=O)c2cnc3cc(OC(F)F)c(F)cc3c2)CC1 (stereo partly drawn) [Example 79]", "IC50", "0.01 to 0.0794 µM"],
  ["O=C(N[C@H]1CC[C@H](OCC2(O)CC2)CC1)c1cnc2cc(OC(F)F)c(Cl)cc2c1 [Example 123]", "IC50", "< 0.01 µM"],
  ["O=C(N[C@H]1CC[C@H](C(O)C(F)(F)F)CC1)c1cnc2cc(OC(F)F)ccc2c1 (stereo partly drawn) [Example 15]", "IC50", "< 0.01 µM"],
  ["CC(C)(O)[C@H]1CC[C@H](NC(=O)c2cnc3cc(C4CC4)c(F)cc3c2)CC1 [Example 42]", "IC50", "< 0.01 µM"],
  ["C[C@H](N[C@H]1CC[C@H](NC(=O)c2cnc3cc(OC(F)F)c(Br)cc3c2)CC1)C(F)F [Example 159]", "IC50", "< 0.01 µM"],
  ["O=C1CC(NC(=O)c2cnc3cc(OC(F)F)c(F)cc3c2)c2ccccc2N1 (stereo not drawn) [Example 54]", "IC50", "0.01 to 0.0794 µM"],
  ["C[C@]1(O)C[C@H](NC(=O)c2cnc3cc(OC(F)F)c(Cl)cc3c2)C1 [Example 137]", "IC50", "0.01 to 0.0794 µM"],
  ["O=C(N[C@@H]1CC[C@@H](NCC(F)(F)F)C1)c1cnc2cc(OC(F)F)c(F)cc2c1 [Example 64]", "IC50", "0.01 to 0.0794 µM"],
  ["C[C@]1(O)C[C@@H](NC(=O)c2cnc3cc(C4CC4)c(Cl)cc3c2)C1 [Example 40]", "IC50", "0.01 to 0.0794 µM"],
  ["C[C@@H]1CNC(=O)[C@H]1NC(=O)c1cnc2cc(N3CC(F)C3)c(F)cc2c1 [Example 206]", "IC50", "0.01 to 0.0794 µM"]
]}
